Sourced from patent US20160150778A1

- protocol.summary: discoloration / decomposition of quat on compounding into polyethylene melt
- Type: physicochemical
- Parameters: key: ++: heavy discoloration; +: discoloration; 0: weak discoloration; −: hardly any discoloration
- run.parameters: 5% additive in polyethylene RT Dowlex 2388, 12 minutes of mixing at 210° C
measurement.label: discoloration

Examples from the recorded data:
molecule	discoloration
CCCCCCCCCCCCCCCCCC[N+](C)(C)Cc1ccccc1 [additive A]	+
Br.CCCCCCCCCCCCCCCCCCN(C)CCCCCCCCCCCCCCCCCC [additive D]	−
Br.CCCCCCCCCCCCCCCCCCN(CCCCCCCCCCCCCCCCCC)CCCCCCCCCCCCCCCCCC [additive E]	−
CCCCCCCCCCCCCCCCCC[N+](C)(C)C [additive B]	+

Now look at this one.
Quick one: discoloration for CCCCCCCCCCCCCCCCCC[N+](C)(C)CCCCCCCCCCCCCCCCCC [additive C] ? 0

----------
- protocol.summary: discoloration / decomposition of quat on compounding into polyethylene melt
- Format: physicochemical
- Design: key: ++: heavy discoloration; +: discoloration; 0: weak discoloration; −: hardly any discoloration
- run.parameters: 2.5% additive in polyethylene RT Dowlex 2388, 12 minutes of mixing at 210° C
measurement.label: discoloration
Answers are plain numbers.

CCCCCCCCCCCCCCCCCC[N+](C)(C)C 0

Record request: discoloration value, item CCCCCCCCCCCCCCCCCC[N+](C)(C)CCCCCCCCCCCCCCCCCC 0

----------
- protocol.summary: discoloration / decomposition of quat on compounding into polyethylene melt
- Format: physicochemical
- Set-up: key: ++: heavy discoloration; +: discoloration; 0: weak discoloration; −: hardly any discoloration
- run.parameters: 10% additive in polyethylene RT Dowlex 2388, 12 minutes of mixing at 210° C
measurement.label: discoloration

Guide cases for discoloration, answers given:
CCCCCCCCCCCCCCCCCC[N+](C)(C)Cc1ccccc1 +
Br.CCCCCCCCCCCCCCCCCCN(C)CCCCCCCCCCCCCCCCCC 0
Br.CCCCCCCCCCCCCCCCCCN(CCCCCCCCCCCCCCCCCC)CCCCCCCCCCCCCCCCCC −
CCCCCCCCCCCCCCCCCC[N+](C)(C)C ++

# lookup: discoloration of CCCCCCCCCCCCCCCCCC[N+](C)(C)CCCCCCCCCCCCCCCCCC +

----------
- protocol.summary: discoloration / decomposition of quat on compounding into polyethylene melt
- Format: physicochemical
- Design: key: ++: heavy discoloration; +: discoloration; 0: weak discoloration; −: hardly any discoloration
- run.parameters: 2.5% additive in polyethylene RT Dowlex 2388, 12 minutes of mixing at 210° C
measurement.label: discoloration

CCCCCCCCCCCCCCCCCC[N+](C)(C)Cc1ccccc1 +
Br.CCCCCCCCCCCCCCCCCCN(C)CCCCCCCCCCCCCCCCCC −
Br.CCCCCCCCCCCCCCCCCCN(CCCCCCCCCCCCCCCCCC)CCCCCCCCCCCCCCCCCC −
